B1: MIA2 (parent)
chain: DMVSNIELPTRIHEEVYFEPSSSK

variants of: B1; assay: protein stability index of a GFP-peptide fusion (GPS, HEK-293T) (PSI 1-6); higher = more stable; details: c terminus: a fixed tail appended;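 note: lentivirally expressed fusions sorted by FACS into six bins by GFP to DsRed ratio, PSI derived from sequencing read proportions per bin multiplied by bin number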
Assay Readout: protein stability index

Take a look at these entries with their results.
# Mutation Key, protein stability index
data = [
    ("Y17S", 4.06),
    ("E19K", 3.54),
    ("N5T", 4.47),
    ("H13K", 3.64),
    ("E15L", 3.27),
]

Recorded protein stability index for S23P , please?
3.67

Recorded protein stability index for D1C , please?
2.86
